Consider the following molecules; for each one, report its viability, T/C.
system: 817829-284-R-J1-PDC complex spheroids, viability; assay: Anticancer human tumor 817829-284-R-J1-PDC patient-derived colon adenocarcinoma cell line growth inhibition [GQUAD]; settings: second compound 0.0316 µM; first compound 0.00999 µM; active compounds read low
Use % as the unit, but write only the number.

Look up viability, T/C of CCc1c2c(nc3ccc(O)cc13)-c1cc3c(c(=O)n1C2)COC(=O)[C@]3(O)CC + Cc1cnc(CNC(=O)c2c(=O)c3ccc(N4CCCN(C)CC4)nc3n3c2sc2ccccc23)cn1 and report it. 28.9

Provide viability, T/C value for the following molecule: Cc1[nH]c2ccccc2c1CCNCc1ccc(/C=C/C(=O)NO)cc1 + Cc1cnc(CNC(=O)c2c(=O)c3ccc(N4CCCN(C)CC4)nc3n3c2sc2ccccc23)cn1 44.2

Look up and state reported viability, T/C for Cc1[nH]c2ccccc2c1CCNCc1ccc(/C=C/C(=O)NO)cc1 + Cc1[nH]c2ccc(F)cc2c1-c1nc2c3cccnc3c3ncccc3c2[nH]1 121

Give reported viability, T/C value for CC[C@@]1(O)C(=O)OCc2c1cc1n(c2=O)Cc2cc3c(CN(C)C)c(O)ccc3nc2-1 + Cc1[nH]c2ccc(F)cc2c1-c1nc2c3cccnc3c3ncccc3c2[nH]1 92.7

# return recorded viability, T/C for entry Cn1ncnc1[C@H]1c2n[nH]c(=O)c3cc(F)cc(c23)N[C@@H]1c1ccc(F)cc1 + Cc1cnc(CNC(=O)c2c(=O)c3ccc(N4CCCN(C)CC4)nc3n3c2sc2ccccc23)cn1 58.1

State its viability, T/C for this molecule: Cn1ncnc1[C@H]1c2n[nH]c(=O)c3cc(F)cc(c23)N[C@@H]1c1ccc(F)cc1 + CN(C)c1ccc(Nc2c3ccc(NC(=O)CCN4CCCC4)cc3nc3cc(NC(=O)CCN4CCCC4)ccc23)cc1 112

Kindly indicate its recorded viability, T/C. Item: Cc1[nH]c2ccccc2c1CCNCc1ccc(/C=C/C(=O)NO)cc1 + CN(C)c1ccc(Nc2c3ccc(NC(=O)CCN4CCCC4)cc3nc3cc(NC(=O)CCN4CCCC4)ccc23)cc1 126

* * *

tested on: 817829-284-R-J1-PDC complex spheroids, viability; test: Anticancer human tumor 817829-284-R-J1-PDC cell line growth inhibition [GQUAD]; conditions: second compound 3.16 µM; first compound 0.0316 µM; active compounds read low;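 note: spheroids exposed to agents for 7 days before readout; percent viability relative to DMSO vehicle control taken as 100%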
ASSAY_READOUT: viability, T/C (%)
Just the number in %, nothing appended.

Look up and report measured viability, T/C for this entry: O=c1[nH]cc(F)c(=O)[nH]1 + Cc1cnc(CNC(=O)c2c(=O)c3ccc(N4CCCN(C)CC4)nc3n3c2sc2ccccc23)cn1 21.8

Indicate the recorded viability, T/C value for this compound: COc1ccc([C@@H](O)c2cc(-c3ncnc4cc(N5CCOCC5)ccc34)c(F)cc2Cl)nn1 + Cc1cnc(CNC(=O)c2c(=O)c3ccc(N4CCCN(C)CC4)nc3n3c2sc2ccccc23)cn1 21.2

Give viability, T/C for Nc1ccn(C2OC(CO)C(O)C2(F)F)c(=O)n1 (stereo unspecified) + Cc1[nH]c2ccc(F)cc2c1-c1nc2c3cccnc3c3ncccc3c2[nH]1 12.7

Find the measured viability, T/C of COc1ncnc(C2CC2)c1-c1ncc2cnn(Cc3ccc(-c4nc(C(F)(F)F)cn4C(C)C)cc3)c2n1 + CN(C)c1ccc(Nc2c3ccc(NC(=O)CCN4CCCC4)cc3nc3cc(NC(=O)CCN4CCCC4)ccc23)cc1 and report it. 106

// fetch viability, T/C given entry Nc1ccn(C2OC(CO)C(O)C2(F)F)c(=O)n1 (stereo unspecified) + Cc1cnc(CNC(=O)c2c(=O)c3ccc(N4CCCN(C)CC4)nc3n3c2sc2ccccc23)cn1 15

Please report viability, T/C for the following compound: COc1ncnc(C2CC2)c1-c1ncc2cnn(Cc3ccc(-c4nc(C(F)(F)F)cn4C(C)C)cc3)c2n1 + Cc1cnc(CNC(=O)c2c(=O)c3ccc(N4CCCN(C)CC4)nc3n3c2sc2ccccc23)cn1 16.9

Return the recorded viability, T/C value; entry: CC(=O)O[C@H]1C(=O)[C@@]2(C)[C@H]([C@H](OC(=O)c3ccccc3)[C@]3(O)C[C@H](OC(=O)[C@H](O)[C@@H](NC(=O)c4ccccc4)c4ccccc4)C(C)=C1C3(C)C)[C@]1(OC(C)=O)CO[C@@H]1C[C@@H]2O + CN(C)c1ccc(Nc2c3ccc(NC(=O)CCN4CCCC4)cc3nc3cc(NC(=O)CCN4CCCC4)ccc23)cc1 6.77

Identify viability, T/C associated with the compound O=c1[nH]cc(F)c(=O)[nH]1 + Cc1[nH]c2ccc(F)cc2c1-c1nc2c3cccnc3c3ncccc3c2[nH]1 106

# return recorded viability, T/C for entry O=C(NO)c1cnc(N2CCN(S(=O)(=O)c3ccc4ccccc4c3)CC2)nc1 + Cc1cnc(CNC(=O)c2c(=O)c3ccc(N4CCCN(C)CC4)nc3n3c2sc2ccccc23)cn1 14.8

Look up and report measured viability, T/C for this entry: COc1ccc([C@@H](O)c2cc(-c3ncnc4cc(N5CCOCC5)ccc34)c(F)cc2Cl)nn1 + CN(C)c1ccc(Nc2c3ccc(NC(=O)CCN4CCCC4)cc3nc3cc(NC(=O)CCN4CCCC4)ccc23)cc1 93.6

Give viability, T/C for CC[C@@]1(O)C(=O)OCc2c1cc1n(c2=O)Cc2cc3c(CN(C)C)c(O)ccc3nc2-1 + Cc1[nH]c2ccc(F)cc2c1-c1nc2c3cccnc3c3ncccc3c2[nH]1 41.9

* * *

Test system: 817829-284-R-J1-PDC complex spheroids, viability
Assay: Anticancer human tumor 817829-284-R-J1-PDC cell line growth inhibition [GQUAD];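 note: spheroids exposed to agents for 7 days before readout; percent viability relative to DMSO vehicle control taken as 100%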
Conditions: second compound 0.0316 µM; first compound 10 µM; active compounds read low
Source text: DNA G-quadruplex Stabilizer Agents in Combinations in Complex Spheroids A high-throughput screen of multi-cell type tumor spheroids was designed to identify active combinations of DNA G-quadruplex stabilizer agents and targeted small molecules. […] Compounds. […] If the clinical Cmax for an agent had not been determined, the highest concentration tested was 10 microM. […]
Would you mind telling me the reported viability, T/C of each entry?
// return numeric value only (unit: %, not printed)

Indicate the recorded viability, T/C value for this molecule: Nc1ccn(C2OC(CO)C(O)C2(F)F)c(=O)n1 (stereo unspecified) + Cc1[nH]c2ccc(F)cc2c1-c1nc2c3cccnc3c3ncccc3c2[nH]1 3.68

// fetch viability, T/C given entry Nc1ccn(C2OC(CO)C(O)C2(F)F)c(=O)n1 (stereo unspecified) + Cc1cnc(CNC(=O)c2c(=O)c3ccc(N4CCCN(C)CC4)nc3n3c2sc2ccccc23)cn1 3.11

State, in one line, measured viability, T/C of O=c1[nH]cc(F)c(=O)[nH]1 + Cc1[nH]c2ccc(F)cc2c1-c1nc2c3cccnc3c3ncccc3c2[nH]1 31.4

Please give the documented viability, T/C of O=C(NO)c1cnc(N2CCN(S(=O)(=O)c3ccc4ccccc4c3)CC2)nc1 + CN(C)c1ccc(Nc2c3ccc(NC(=O)CCN4CCCC4)cc3nc3cc(NC(=O)CCN4CCCC4)ccc23)cc1 0.2

Complete the entry with viability, T/C for CCCS(=O)(=O)Nc1ccc(F)c(C(=O)c2c[nH]c3ncc(-c4ccc(Cl)cc4)cc23)c1F + Cc1cnc(CNC(=O)c2c(=O)c3ccc(N4CCCN(C)CC4)nc3n3c2sc2ccccc23)cn1 11.8

Query viability, T/C for CC(C)n1c(=O)n(C)c2cnc3cc(F)c(-c4ccc(OCCCN5CCCCC5)nc4)cc3c21 + Cc1[nH]c2ccc(F)cc2c1-c1nc2c3cccnc3c3ncccc3c2[nH]1 94.9

* * *

Test system: 817829-284-R-J1-PDC complex spheroids, viability
Test: Anticancer human tumor 817829-284-R-J1-PDC cell line growth inhibition [GQUAD];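 note: spheroids exposed to agents for 7 days before readout; percent viability relative to DMSO vehicle control taken as 100%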
Details: second compound 3.16 µM; first compound 0.0316 µM; active compounds read low
From the text: DNA G-quadruplex Stabilizer Agents in Combinations in Complex Spheroids A high-throughput screen of multi-cell type tumor spheroids was designed to identify active combinations of DNA G-quadruplex stabilizer agents and targeted small molecules. […] Compounds. […] If the clinical Cmax for an agent had not been determined, the highest concentration tested was 10 microM. […]
ASSAY_READOUT: viability, T/C (%)
Report the value in % with no unit label.

Please respond with reported viability, T/C (system 817829-284-R-J1-PDC complex spheroids, viability) for C=CCn1c(=O)c2cnc(Nc3ccc(N4CCN(C)CC4)cc3)nc2n1-c1cccc(C(C)(C)O)n1 + Cc1cnc(CNC(=O)c2c(=O)c3ccc(N4CCCN(C)CC4)nc3n3c2sc2ccccc23)cn1 . 18.4

Under 817829-284-R-J1-PDC complex spheroids, viability, report viability, T/C for CCCS(=O)(=O)Nc1ccc(F)c(C(=O)c2c[nH]c3ncc(-c4ccc(Cl)cc4)cc23)c1F + Cc1cnc(CNC(=O)c2c(=O)c3ccc(N4CCCN(C)CC4)nc3n3c2sc2ccccc23)cn1 18

GET viability, T/C where system = 817829-284-R-J1-PDC complex spheroids, viability and item = Cn1ncnc1[C@H]1c2n[nH]c(=O)c3cc(F)cc(c23)N[C@@H]1c1ccc(F)cc1 + Cc1cnc(CNC(=O)c2c(=O)c3ccc(N4CCCN(C)CC4)nc3n3c2sc2ccccc23)cn1 19.4

GET viability, T/C | system: 817829-284-R-J1-PDC complex spheroids, viability | item: CC1COCCN1c1cc(C2(S(C)(=N)=O)CC2)nc(-c2ccnc3[nH]ccc23)n1 (stereo unspecified) + Cc1cnc(CNC(=O)c2c(=O)c3ccc(N4CCCN(C)CC4)nc3n3c2sc2ccccc23)cn1 21.5

State viability, T/C (817829-284-R-J1-PDC complex spheroids, viability) of CC1COCCN1c1cc(-c2ccnn2C)c2ccnc(-c3ccn[nH]3)c2n1 (stereo unspecified) + CN(C)c1ccc(Nc2c3ccc(NC(=O)CCN4CCCC4)cc3nc3cc(NC(=O)CCN4CCCC4)ccc23)cc1 . 36.6

Please report the measured viability, T/C for Cc1[nH]c2ccccc2c1CCNCc1ccc(/C=C/C(=O)NO)cc1 + Cc1cnc(CNC(=O)c2c(=O)c3ccc(N4CCCN(C)CC4)nc3n3c2sc2ccccc23)cn1 tested on 817829-284-R-J1-PDC complex spheroids, viability. 11.8

Please report viability, T/C with 817829-284-R-J1-PDC complex spheroids, viability for item COc1cc(C2c3cc4c(cc3C(OC3OC5COC(C)OC5C(O)C3O)C3COC(=O)C23)OCO4)cc(OC)c1O (stereo unspecified) + Cc1[nH]c2ccc(F)cc2c1-c1nc2c3cccnc3c3ncccc3c2[nH]1 . 109

For 817829-284-R-J1-PDC complex spheroids, viability, give viability, T/C of the listed molecule: Cn1ncnc1[C@H]1c2n[nH]c(=O)c3cc(F)cc(c23)N[C@@H]1c1ccc(F)cc1 + Cc1[nH]c2ccc(F)cc2c1-c1nc2c3cccnc3c3ncccc3c2[nH]1 83.2

Please tell me the measured viability, T/C for C=CC(=O)N1CCN(c2nc(=O)n(-c3c(C)ccnc3C(C)C)c3nc(-c4c(O)cccc4F)c(F)cc23)C(C)C1 (stereo unspecified) + Cc1[nH]c2ccc(F)cc2c1-c1nc2c3cccnc3c3ncccc3c2[nH]1 ; system: 817829-284-R-J1-PDC complex spheroids, viability. 102

Report value: viability, T/C, system: 817829-284-R-J1-PDC complex spheroids, viability, molecule: C=CCn1c(=O)c2cnc(Nc3ccc(N4CCN(C)CC4)cc3)nc2n1-c1cccc(C(C)(C)O)n1 + Cc1[nH]c2ccc(F)cc2c1-c1nc2c3cccnc3c3ncccc3c2[nH]1 46.1

Under 817829-284-R-J1-PDC complex spheroids, viability: report viability, T/C of CCc1c2c(nc3ccc(O)cc13)-c1cc3c(c(=O)n1C2)COC(=O)[C@]3(O)CC + Cc1[nH]c2ccc(F)cc2c1-c1nc2c3cccnc3c3ncccc3c2[nH]1 . 10.8
